Sourced from PubChem BioAssay (NCATS)

The following compounds are listed with their measured activity, negative = cell killing values.
# experimental-protocol: Drug repurposing screens with cells derived from glioblastoma tumor samples (AID 1345199); also: % is scaled to controls: 0 for no effect and ±100 for the full control effect; nearly all actives have a fitted effect of over 40% in size
# settings: GBM patient neurospheres viability, ATP luminescence, 48 h; at 45.9 µM (top of the series); tumour line D
Results filed as inconclusive are left out.
Give the quantity in %, number only.

Reference set, count: 3
compound | assay-result
Cc1ncc(CO)c(C=O)c1O | -6.02
CCCCCCCCCCCCCCCCO | 5.55
CCCCCCCCOc1ccc(C(=O)c2ccccc2)c(O)c1 | -9.16

Input line: Entry Cc1cc2c(OCC(CNC(C)(C)C)OC(=O)c3ccccc3)cccc2[nH]1 (centres undefined) has what activity, negative = cell killing?
Output line: -5.62

Input line: Entry `CC(=O)O[C@H]1C[C@@H]2CC[C@@H]3[C@H](CC[C@@]4(C)[C@H]3C[C@H]([N+]3(C)CCCCC3)[C@@H]4OC(C)=O)[C@@]2(C)C[C@@H]1N1CCCCC1` has what activity, negative = cell killing?
Output line: -1.11

Input line: Entry `Cc1nc(-c2ccc(Cl)cc2)oc1COC(C)(C)C(=O)O` has what activity, negative = cell killing?
Output line: -2.81

Input line: Entry `COc1cc([C@H]2Oc3cc([C@H]4Oc5cc(O)cc(O)c5C(=O)[C@@H]4O)ccc3O[C@@H]2CO)ccc1O` has what activity, negative = cell killing?
Output line: -13.1

Input line: Entry `O=C(O)c1ccc(S(=O)(=O)N(Cl)Cl)cc1` has what activity, negative = cell killing?
Output line: -8.56

Input line: Entry OC1C(O)C(O)C(O)C(O)C1O (centres undefined) has what activity, negative = cell killing?
Output line: -13.1

Input line: Entry CCC1Nc2cc(Cl)c(S(N)(=O)=O)cc2S(=O)(=O)N1 (centres undefined) has what activity, negative = cell killing?
Output line: 9.79

Input line: Entry `Cc1ccc(-c2ncc(Cl)cc2-c2ccc(S(C)(=O)=O)cc2)cn1` has what activity, negative = cell killing?
Output line: -1.02

* * *

# experimental-protocol: qHTS of pediatric cancer cell lines to identify multiple opportunities for drug repurposing: Confirmatory screen for MG 63 (6-TG R) cells (AID 1347119); also: nearly all actives have a fitted effect of over 55% in size
# settings: MG-63 (6-TG resistant) osteosarcoma viability; series mostly up to 45.9 µM
Results filed as inconclusive are left out. Active and inactive are the calls of the source. The call rests on the fitted dose curve; in most records, active means well fitted cell-killing curve with a large enough effect; inconclusive means small, poorly fitted or top-dose-only effect, or effect the other way; inactive means no such curve, though single readings can be large or run the other way.
Mark one answer only. Choices: active, inactive

query-smiles | label-class
C[C@@]12C(=O)OC(=O)[C@]1(C)C1CCC2O1 | active
C[C@H]1O[C@@H](O[C@H]2CC[C@@]3(C)[C@H](CC[C@@H]4[C@@H]3C[C@@H](O)[C@]3(C)[C@@H](C5=CC(=O)OC5)CC[C@]43O)C2)C[C@H](O)[C@@H]1O[C@H]1C[C@H](O)[C@H](O[C@H]2C[C@H](O)[C@H](O[C@@H]3O[C@H](CO)[C@@H](O)[C@H](O)[C@H]3O)[C@@H](C)O2)[C@@H](C)O1 | active
CCN(CC)CCOc1ccc2c(c1)C(=O)c1cc(OCCN(CC)CC)ccc1-2 | inactive
CCCCCCCCCCC[C@@H](C[C@@H]1OC(=O)[C@H]1CCCCCC)OC(=O)[C@H](CC(C)C)NC=O | inactive

Input line: For `CCN1/C(=C/C=C/c2sc3ccccc3[n+]2CC)Sc2ccccc21` , which call appears in the assay record?
Output line: active

* * *

# experimental-protocol: qHTS of pediatric cancer cell lines to identify multiple opportunities for drug repurposing: Primary screen for NB1643 cells (AID 1347099); also: nearly all actives have a fitted effect of over 50% in size
# settings: NB1643 neuroblastoma viability, CellTiter-Glo luminescence, 48 h; series mostly up to 46 µM
# Procedure: Drug repurposing or repositioning has been offered as a strategy for drug development in oncology programs. This approach has special potential for childhood cancers and other rare or orphan diseases, where the expected return on new drug development has been a disincentive to pharmaceuticals. […] We employed a titration-based paradigm (quantitative high-throughput screening or qHTS), where all compounds were tested at multiple concentrations for their effect on cell viability. […]
Results filed as inconclusive are left out. Activity calls are given as the source filed them. Calls come from the whole dose curve; as a rule, active = well fitted cell-killing curve with a large enough effect; inconclusive = small, poorly fitted or top-dose-only effect; inactive = no such curve, though single readings can be large or run the other way.
Mark one answer only. Choices: label 1 (active), label 0 (inactive)

# example entries with known answers
molecule | label-class
CCN(CC)CCNC(=O)COc1ccc(OC)cc1 | label 0
Cc1ncc(CO)c(C=O)c1O | label 0
CCCCCCCCCCCCCCCC(=O)O | label 0
O=C1C(O)=C(O)C(=O)C(O)=C1O | label 0

Input line: For `CCCN(CCC)S(=O)(=O)c1ccc(C(=O)O)cc1` , which call appears in the assay record?
Output line: label 0

Input line: For `CC(=O)OCC(=O)[C@H]1CC[C@H]2[C@@H]3CCC4=CC(=O)CC[C@]4(C)[C@H]3CC[C@]12C` , which call appears in the assay record?
Output line: label 0

Input line: For `O=[N+]([O-])c1cccc(S(=O)(=O)NCCNS(=O)(=O)c2cccc([N+](=O)[O-])c2)c1` , which call appears in the assay record?
Output line: label 0

Input line: For `CC(=C(CCOC(=O)C(C)C)SSC(CCOC(=O)C(C)C)=C(C)N(C=O)Cc1cnc(C)nc1N)N(C=O)Cc1cnc(C)nc1N` , which call appears in the assay record?
Output line: label 0

Input line: For `COc1cc([C@H]2Oc3cc([C@H]4Oc5cc(O)cc(O)c5C(=O)[C@@H]4O)ccc3O[C@@H]2CO)ccc1O` , which call appears in the assay record?
Output line: label 0

Input line: For O=C1C(CCS(=O)c2ccccc2)C(=O)N(c2ccccc2)N1c1ccccc1 (stereo not given) , which call appears in the assay record?
Output line: label 0

Input line: For CCN1CCCC(OC(=O)C(c2ccccc2)c2ccccc2)C1 (stereo not given) , which call appears in the assay record?
Output line: label 0

Input line: For `COc1ccc(C(Cl)=C(c2ccc(OC)cc2)c2ccc(OC)cc2)cc1` , which call appears in the assay record?
Output line: label 0

Input line: For `C=C[C@H]1CN2CC[C@H]1C[C@H]2[C@H](O)c1ccnc2ccc(OC)cc12` , which call appears in the assay record?
Output line: label 0

Input line: For `Oc1ccc(Cl)cc1Cc1cc(Cl)ccc1O` , which call appears in the assay record?
Output line: label 1

Input line: For `COc1ccc(S(=O)(=O)N2c3ccc(Cl)cc3[C@@](O)(c3ccccc3Cl)[C@H]2C(=O)N2CCC[C@@H]2C(N)=O)cc1OC` , which call appears in the assay record?
Output line: label 0

Input line: For `Cc1ccc(-c2ncc(Cl)cc2-c2ccc(S(C)(=O)=O)cc2)cn1` , which call appears in the assay record?
Output line: label 0

* * *

The following compounds are listed with their measured activity, negative = cell killing values.
# experimental-protocol: Drug repurposing screens with cells derived from glioblastoma tumor samples (AID 1345199); also: % is scaled to controls: 0 for no effect and ±100 for the full control effect; nearly all actives have a fitted effect of over 40% in size
# settings: GBM patient neurospheres viability, ATP luminescence, 48 h; at 46.1 µM (top of the series); tumour line C
Records with an inconclusive call do not appear.
Give the quantity in %, number only.

compound | activity, negative = cell killing, %
CCC1Nc2cc(Cl)c(S(N)(=O)=O)cc2S(=O)(=O)N1 (configuration not stated) | -1.53
O=C(Nc1ccc([N+](=O)[O-])cc1)Nc1ccc([N+](=O)[O-])cc1 | -15.7
Cc1cccc(C)c1NC(=O)CN1CCCC1 | -8.15

Input line: Entry CC(C)NCC(O)c1ccc2ccccc2c1 (configuration not stated) has what activity, negative = cell killing?
Output line: -5.59

Input line: Entry `Cc1ccc(O)c([C@H](CCN(C(C)C)C(C)C)c2ccccc2)c1` has what activity, negative = cell killing?
Output line: -1.49

Input line: Entry `CCCCCN=C(N)N/N=C/c1c[nH]c2ccc(OC)cc12` has what activity, negative = cell killing?
Output line: 9.98

Input line: Entry `C#C[C@]1(O)CC[C@H]2[C@@H]3CCC4=CC(=O)CC[C@@H]4[C@H]3CC[C@@]21CC` has what activity, negative = cell killing?
Output line: 6

Input line: Entry `NC(=S)N/N=C/c1cccnc1` has what activity, negative = cell killing?
Output line: -3.6

Input line: Entry `Cl/C(=C\n1cncn1)c1ccc(Cl)cc1Cl` has what activity, negative = cell killing?
Output line: -23.5

Input line: Entry `CC(C)(C)NC[C@H](O)COc1nsnc1N1CCOCC1` has what activity, negative = cell killing?
Output line: -12.6

Input line: Entry `Oc1ccccc1C=NCc1ccccc1` has what activity, negative = cell killing?
Output line: -2.77

Input line: Entry Cc1cc(C)cc(OCC2CNC(=O)O2)c1 (configuration not stated) has what activity, negative = cell killing?
Output line: 3.04

* * *

# experimental-protocol: MultiTox-Fluor Cytotoxicity Assay - LYMP1-001 - Live Cells (AID 947);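 also: 0% = DMSO only and full inhibition = tetraoctylammonium bromide control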
# settings: LYMP1-001 lymphoblastoid cells, live-cell protease fluorescence viability; series mostly up to 92.2 µM
Records with an inconclusive call do not appear. Active and inactive are the calls of the source. The call rests on the fitted dose curve; in most records, active means well fitted cell-killing curve with a large enough effect; inconclusive means small, poorly fitted or top-dose-only effect; inactive means flat fitted curve, though single readings scatter.
assay-readout: outcome

compound | outcome
COc1cc([C@H]2Oc3cc([C@H]4Oc5cc(O)cc(O)c5C(=O)[C@@H]4O)ccc3O[C@@H]2CO)ccc1O | inactive
CCCCC(CC)COC(=O)c1ccc(N(C)C)cc1 (stereo not drawn) | inactive
NC(=O)c1ccccc1O | inactive
C/C=C/c1ccc(O)c(OC)c1 | inactive
COc1ccc(C(Cl)=C(c2ccc(OC)cc2)c2ccc(OC)cc2)cc1 | inactive
CCOc1ccccc1C(N)=O | inactive
O=C(O)c1ccc(S(=O)(=O)N(Cl)Cl)cc1 | inactive

Then there is this compound:
Input line: Entry `OC[C@H]1O[C@@H]2O[C@H]3[C@H](O)[C@@H](O)[C@@H](O[C@H]4[C@H](O)[C@@H](O)[C@@H](O[C@H]5[C@H](O)[C@@H](O)[C@@H](O[C@H]6[C@H](O)[C@@H](O)[C@@H](O[C@H]7[C@H](O)[C@@H](O)[C@@H](O[C@H]8[C@H](O)[C@@H](O)[C@@H](O[C@H]1[C@H](O)[C@H]2O)O[C@@H]8CO)O[C@@H]7CO)O[C@@H]6CO)O[C@@H]5CO)O[C@@H]4CO)O[C@@H]3CO` has what outcome?
Output line: inactive
